system: LPS-stimulated mouse macrophage RAW264.7 cells, NO production (小鼠巨噬细胞RAW264.7细胞, 一氧化氮(NO)生成); assay: Griess assay of NO production in LPS-stimulated RAW264.7 cells; assay type: cell-based; settings: Mus musculus, RAW264.7, read-out: IC50 (inhibition of NO production)
measured.endpoint: IC50 (µM)
Numbers only, in µM.

# lookup: IC50 of "C=C1CC[C@H]2[C@@H](/C=C(\C)C(=O)[C@@]3(O)C[C@H](C)[C@H](O)[C@@H]3[C@H]1O)C2(C)C"
11.1

====

molecular target: MAFF protein (MAFF蛋白) (Homo sapiens)
Sequence (Q9ULX9 whole entry, species assumed): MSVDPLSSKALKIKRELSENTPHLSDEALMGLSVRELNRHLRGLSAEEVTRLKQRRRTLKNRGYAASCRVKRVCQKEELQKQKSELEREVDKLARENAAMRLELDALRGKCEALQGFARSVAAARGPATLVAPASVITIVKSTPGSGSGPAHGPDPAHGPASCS
measured.endpoint: Kd (µM)
One number for each entry, in µM.

# lookup: Kd of "C=C1CC[C@H]2[C@@H](/C=C(\C)C(=O)[C@@]3(O)C[C@H](C)[C@H](O)[C@@H]3[C@H]1O)C2(C)C"
20.9
